# experiment-notes: Toxicity liver stage against HepG2, at 10uM
# Format: cell-based
# Parameters: test concentration 10 uM, cell line HepG2-A16-CD81EGFP
# measurement-conditions: human, HepG2-A16-CD81EGFP cells; read-out: INHIBITION
outcome-measure: cytotoxicity at 10 µM (%)
Write the answer as a number in %, unit excluded.

compound: CC1(CNS(=O)(=O)c2cccc(C(=O)N3CCSCC3)c2)COC1
outcome-measure: cytotoxicity at 10 µM
value-reported: -6.69
//
compound: CCCSCC(=O)Nc1ncn(CC(=O)N2CCCCCC2)n1
outcome-measure: cytotoxicity at 10 µM
value-reported: -3.91
//
compound: CC(Cn1cncn1)NC(=O)Nc1ccc(COC2CCCC2)cc1 (centres undefined)
outcome-measure: cytotoxicity at 10 µM
value-reported: -1.47
//
compound: Cc1csc2c(C3CCN(CCOc4ccccc4F)CC3)nc(C)n12
outcome-measure: cytotoxicity at 10 µM
value-reported: 5.89
//
compound: NC(=O)c1cc2c(nc1-c1ccoc1)CCC2
outcome-measure: cytotoxicity at 10 µM
value-reported: 0.562

Can you look up the measured cytotoxicity at 10 µM of CC(C)C(=O)N1CCCC(Cc2ccccn2)C1 (centres undefined) for me?
-5.3

Form field: reported cytotoxicity at 10 µM of CCn1ncc2c1CCCC2NCc1csc(C(C)C)n1 (centres undefined)
-1.69

Would you mind telling me what cytotoxicity at 10 µM value was observed for `OCc1cnc(Nc2ccccc2)nc1` ?
11.3

Query (compound): CN1CCCC(N2CCN(c3nc4ccccn4c3C#N)CC2)C1 (centres undefined) ; field requested: cytotoxicity at 10 µM
1.52

* * *

# experiment-notes: Toxicity liver stage against HepG2, at 10uM
# Assay type: cell-based
# Parameters: test concentration 10 uM, cell line HepG2-A16-CD81EGFP
# measurement-conditions: human, HepG2-A16-CD81EGFP cells; read-out: INHIBITION
The entries below come with measured cytotoxicity at 10 µM values attached.
Value expressed in %; do not type the unit.

The cases that follow already have their cytotoxicity at 10 µM on record.
compound: CS(=O)(=O)N1CCO[C@@H]2CN(C(=O)C3CCOC3)CC[C@@H]2C1 (stereo partly specified)
value-unit: %
value-reported: -108
//
compound: NC(=O)C1CCCN(C(=O)c2cnc3c(cnn3C3CCCC3)c2)C1 (stereo unspecified)
value-unit: %
value-reported: -5.54
//
compound: O=C(CCc1ccco1)N1CCCC(n2cccn2)C1 (stereo unspecified)
value-unit: %
value-reported: -8.8
//
compound: COc1ccccc1OC1CCN(C(=O)CCCN2CCOCC2)CC1
value-unit: %
value-reported: -177
//
compound: O=C1CC2(CCCCN2C(=O)c2cccs2)CN1CC1CC1 (stereo unspecified)
value-unit: %
value-reported: 2.67

Moving on to another compound below.
Recorded cytotoxicity at 10 µM for Cc1cc(CCC(=O)Nc2nncs2)nc(C2CCCN2)n1 (stereo unspecified) , please?
-28

* * *

# experiment-notes: Toxicity liver stage against HepG2, at 10uM
# Assay type: cell-based
# Set-up: test concentration 10 uM, cell line HepG2-A16-CD81EGFP
# measurement-conditions: human, HepG2-A16-CD81EGFP cells; read-out: INHIBITION
outcome-measure: cytotoxicity at 10 µM (%)
Express your answer in %, writing the number without its unit.

Some compounds with recorded cytotoxicity at 10 µM:
compound: CCn1ccnc1CN1CCC(=O)N(CC2CC2)C(C(C)C)C1 (stereo not given)
outcome-measure: cytotoxicity at 10 µM
value-reported: -10.3

compound: Cc1nnc(N2CCOC(C)(C(=O)N(C)C)C2)c2ccccc12 (stereo not given)
outcome-measure: cytotoxicity at 10 µM
value-reported: 10.4

compound: CNC(=O)[C@@H]1CC[C@@H]2[C@@H](CCN2Cc2cn(C)c3ccccc23)O1
outcome-measure: cytotoxicity at 10 µM
value-reported: 10.7

compound: NC(=O)C1CCN(c2ccc(C(=O)N3CCc4ccccc43)cn2)C1 (stereo not given)
outcome-measure: cytotoxicity at 10 µM
value-reported: -1.29

compound: COC(=O)CNc1cc(C(=O)NCC(F)(F)F)cc(F)c1C
outcome-measure: cytotoxicity at 10 µM
value-reported: 6.05

I'd like to know its cytotoxicity at 10 µM. The compound in question is `COCCCN(CCOC)C(=O)Nc1ccc(Br)cc1`
6.66

For Cc1cccc(CN2CCC3(CC(C(=O)NCC(C)C)=NO3)C2)c1 (stereo not given) , what is its reported cytotoxicity at 10 µM?
4.66

Recorded cytotoxicity at 10 µM for `CCCC(=O)NCc1cccc(C(=O)OC)c1` , please?
5.99

Any idea what its cytotoxicity at 10 µM is? The compound is `Cc1oc(C)c(C(=O)NCc2ccccc2CN(C)C)c1C`
-16.9

I am curious: what cytotoxicity at 10 µM value has been reported for `COCC(=O)N[C@@H]1CN(Cc2c[nH]nc2-c2cccs2)C[C@H]1O` ?
1.48

Which measured cytotoxicity at 10 µM value corresponds to CCn1ccnc1CN1CCCC(CO)(CCCc2ccccc2)C1 (stereo not given) ?
-4.84

Reported cytotoxicity at 10 µM, compound O=C1Nc2ccccc2CN(CC=Cc2ccccc2)C12CCNC2 (stereo not given) : ____
2.96

Entry CCOCC1CN(Cc2cc(C)on2)Cc2cn(C)nc21 (stereo not given) : reported cytotoxicity at 10 µM = ?
13.6

Entry under review: Cn1ncc2c1NC(=O)CC2c1cccs1 (stereo not given) . Reported cytotoxicity at 10 µM?
-0.585

Form field: reported cytotoxicity at 10 µM of `c1cncc(CN2CCc3c(CNc4nccs4)n[nH]c3C2)c1`
1.04

Entry under review: CC(C)N1CCCC(C(=O)NCCCc2cnn(C)c2)C1 (stereo not given) . Reported cytotoxicity at 10 µM?
17.1

Consider the compound `COCCn1cnnc1CN(C)c1nc(N)nc2c1CCCC2` and give its measured cytotoxicity at 10 µM.
-6.98

Form field: reported cytotoxicity at 10 µM of `CCN(C(=O)Cn1cc(NC(=O)C(C)(C)C)cn1)c1ccccc1`
3.49

* * *

# experiment-notes: Toxicity liver stage against HepG2, at 10uM
# Format: cell-based
# Design: test concentration 10 uM, cell line HepG2-A16-CD81EGFP
# measurement-conditions: human, HepG2-A16-CD81EGFP cells; read-out: INHIBITION
outcome-measure: cytotoxicity at 10 µM (%)
Return type: number; implicit unit %.

compound: O=C(CNC1CCc2ncnn2C1)N(C1=CCCCC1)C1CC1 (centres undefined)
value-unit: %
value-reported: -8.07
//
compound: CC(=O)NCc1ccc(C(=O)N2CCCc3c(F)ccc(C)c32)o1
value-unit: %
value-reported: -0.883
//
compound: O=c1[nH]c(-c2ccccn2)nc2c1CCN(S(=O)(=O)N1CCCC1)C2
value-unit: %
value-reported: 8.85
//
compound: c1cc(NC2CC3(CCN(Cc4cc[nH]n4)C3)C2)ncn1 (centres undefined)
value-unit: %
value-reported: -4.71
//
compound: Cn1nnc2c1C(COCC1CC1)CN(C(=O)C1=CCCC1)C2 (centres undefined)
value-unit: %
value-reported: -102
//
compound: Cn1cc(CN2CCC3(C2)CN(Cc2ccsc2)C3)cn1
value-unit: %
value-reported: -11.2
//
compound: CC(=O)c1cc2ncc(C(=O)NC3CC3)cc2[nH]1
value-unit: %
value-reported: -0.0253
//
compound: O=C(c1ccc2nncn2c1)N1CCCC(n2ccnc2)C1 (centres undefined)
value-unit: %
value-reported: -1.14
//
compound: CN(C)C(=O)Cc1ccc(NC(=O)NC2CCCCC2)cc1
value-unit: %
value-reported: -11.3
//
compound: CN(Cc1cc2n(n1)CCCNC2)Cc1ccno1
value-unit: %
value-reported: 2.57

Read the next record carefully.
Field request: cytotoxicity at 10 µM | item: `Cc1nc(CC(=O)N2CCC(c3ccn4nccc4n3)CC2)cs1`
-0.956

* * *

# experiment-notes: Toxicity liver stage against HepG2, at 10uM
# Type: cell-based
# Parameters: test concentration 10 uM, cell line HepG2-A16-CD81EGFP
# measurement-conditions: human, HepG2-A16-CD81EGFP cells; read-out: INHIBITION
outcome-measure: cytotoxicity at 10 µM (%)
// units = %; emit number, no label

The examples below pair each entry with its known result.
molecule: Cn1cc(-c2csc(N3CCSCC3)n2)cn1
value-unit: %
cytotoxicity at 10 µM: -1.31

molecule: CC(C)c1nc(CNC2CCCN(c3cccnn3)C2)no1 (stereo unspecified)
value-unit: %
cytotoxicity at 10 µM: 7.68

molecule: Cc1nc(COC[C@H]2CCC[C@]23CN(C2CCOC2)CCO3)cs1 (stereo partly specified)
value-unit: %
cytotoxicity at 10 µM: -79.5

Would you kindly share the measured cytotoxicity at 10 µM for `CCOc1ccc2cc(C(=O)NCCNc3ccc(C)nn3)[nH]c2c1` ?
1.64

Reported cytotoxicity at 10 µM for `CC(=O)N1CCC2(CC1)CCN(C(=O)c1cccc(C(F)(F)F)c1)C2` : what is it?
-74.5

Value lookup for cytotoxicity at 10 µM; key = CCn1c(CC2CCN(C(=O)C3CCOC3)CC2)nn(C)c1=O (stereo unspecified)
-18
